These data points were gathered from the supplement of paper PMC3545927.

- testedTarget: furin, P09958;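 further: purified furin at 1:10 enzyme:substrate in 50 mM HEPES pH 7.5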
- Sequence (P09958 whole entry): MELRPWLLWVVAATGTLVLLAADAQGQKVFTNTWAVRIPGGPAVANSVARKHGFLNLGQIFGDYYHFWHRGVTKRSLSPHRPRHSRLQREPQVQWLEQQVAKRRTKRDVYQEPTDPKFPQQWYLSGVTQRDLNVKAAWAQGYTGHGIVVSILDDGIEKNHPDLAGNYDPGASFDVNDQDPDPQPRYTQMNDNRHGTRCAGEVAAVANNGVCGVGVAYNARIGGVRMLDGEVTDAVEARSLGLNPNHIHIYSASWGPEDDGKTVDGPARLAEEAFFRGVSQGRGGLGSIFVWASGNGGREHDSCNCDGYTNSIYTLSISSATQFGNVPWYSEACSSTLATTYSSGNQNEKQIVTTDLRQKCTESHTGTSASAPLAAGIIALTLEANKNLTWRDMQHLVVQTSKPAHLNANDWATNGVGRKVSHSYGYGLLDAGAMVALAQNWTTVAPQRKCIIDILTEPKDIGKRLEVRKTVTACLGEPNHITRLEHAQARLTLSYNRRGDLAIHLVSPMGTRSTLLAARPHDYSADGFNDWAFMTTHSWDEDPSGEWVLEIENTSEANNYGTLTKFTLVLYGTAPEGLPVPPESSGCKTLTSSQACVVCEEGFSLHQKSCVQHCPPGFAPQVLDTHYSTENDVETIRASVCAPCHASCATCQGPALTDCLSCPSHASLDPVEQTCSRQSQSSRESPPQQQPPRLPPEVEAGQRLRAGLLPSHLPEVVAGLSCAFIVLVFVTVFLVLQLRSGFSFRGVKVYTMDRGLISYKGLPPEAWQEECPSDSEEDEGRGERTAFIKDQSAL
- assayOverview: furin cleavage Z-score vs untreated control; higher = more cleavage, active = 3.5 or more, inactive = 1 or less, 8 variable residues between constant flanks
- condition: 30 min
Some of the results follow. The hit rate among all sequences tested is not known here.
Result category, one only: active, inactive

CARFRRLWPCAGNASASA [FS-1705] ... inactive

Per the assay record, what outcome was assigned to CARKKKVWDYAGNASASA [FS-2424] ?
inactive

Would you mind doing CAEVVTSTWVAGNASASA [HC136] as well?
inactive

Would you mind doing CAELVTSTWVAGNASASA [HC2165] as well?
inactive

Would you mind doing CAREDRDVNDAGNASASA [FS-2393] as well?
inactive

Would you mind doing CARFRRQQWKAGNASASA [FS-2416] as well?
inactive

Would you mind doing CARHPRSPPRAGNASASA [FS-2679] as well?
active

Would you mind doing CAREPRLVGGAGNASASA [FS-2136] as well?
inactive

Would you mind doing CARMRRYADAAGNASASA [FS-2355] as well?
active
